Ref: patent US9309242B2

Measured parameter: melting point (°C)
Dear colleague, please return just the value in °C, with no unit written.

Input line: Requested field: melting point. Item: COc1cc(OC)c(F)c(N(CCCO)c2ccc3ncc(-c4cnn(C)c4)nc3n2)c1F (single isomer, unassigned) [Compound 16]
Output line: 208

Input line: Query COc1cc(OC)c(F)c(N(CCNC2COC2)c2ccc3ncc(-c4cnn(C)c4)nc3n2)c1F (single isomer, unassigned) [Compound 162] next
Output line: 183

Input line: Query COc1cc(/N=c2\ccc3ncc(-c4cnn(C)c4)nc3n2CC2CCCCO2)cc(OC)c1 (centres unmarked) next
Output line: 210

Input line: Query COc1cc(OC)cc(N(CCNC(C)=O)c2ccc3ncc(-c4cnn(C)c4)nc3n2)c1 [Compound 235] next
Output line: 193

Input line: Query COc1cc(OC)c(F)c(N(Cc2ncccn2)c2ccc3ncc(-c4cnn(C)c4)nc3n2)c1 [Compound 9] next
Output line: 227

Input line: Query COc1cc(OC)c(F)c(/N=c2\ccc3ncc(-c4cnn(C)c4)nc3n2CC2CCC(=O)N2)c1F (centres unmarked) [Compound 47] next
Output line: 169

Input line: Query COCC(O)Cn1c(=Nc2c(F)c(OC)cc(OC)c2F)ccc2ncc(-c3cnn(C)c3)nc21 (centres unmarked) [Compound 51] next
Output line: 180

Input line: Query COc1cc(O)cc(N(Cc2ncc[nH]2)c2ccc3ncc(-c4cnn(C)c4)nc3n2)c1F [Compound 95] next
Output line: 218

Input line: Query COc1cc(OC)c(Cl)c(N(C[C@H]2CCC(=O)N2)c2ccc3ncc(-c4cnn(C)c4)nc3n2)c1Cl [Compound 97] next
Output line: 150

Input line: Query COc1cc(OC)c(F)c(/N=c2\ccc3ncc(-c4cnn(C)c4)nc3n2C)c1F (single isomer, unassigned) [Compound 255] next
Output line: 199

Input line: Query COc1cc(OC)cc(N(Cc2nnc(N)o2)c2ccc3ncc(-c4cnn(C)c4)nc3n2)c1 [Compound 188] next
Output line: 246

Input line: Query COc1cc(OC)c(F)c(N(CC2CCC(=O)N2CCO)c2ccc3ncc(-c4cnn(C)c4)nc3n2)c1 (single isomer, unassigned) [Compound 218] next
Output line: 130

Input line: Query COc1cc(OC)cc(N(Cc2nnc(NCCO)o2)c2ccc3ncc(-c4cnn(C)c4)nc3n2)c1 [Compound 282] next
Output line: 104

---

target: FGFR2 (h) (Homo sapiens, UniProt P21802); assay: FGFR2 (enzymatic assay), TR-FRET; assay type: biochemical; conditions: enzymatic assay; read-out: FGFR 2 pIC50 (converted)
Sequence (P21802 22-821): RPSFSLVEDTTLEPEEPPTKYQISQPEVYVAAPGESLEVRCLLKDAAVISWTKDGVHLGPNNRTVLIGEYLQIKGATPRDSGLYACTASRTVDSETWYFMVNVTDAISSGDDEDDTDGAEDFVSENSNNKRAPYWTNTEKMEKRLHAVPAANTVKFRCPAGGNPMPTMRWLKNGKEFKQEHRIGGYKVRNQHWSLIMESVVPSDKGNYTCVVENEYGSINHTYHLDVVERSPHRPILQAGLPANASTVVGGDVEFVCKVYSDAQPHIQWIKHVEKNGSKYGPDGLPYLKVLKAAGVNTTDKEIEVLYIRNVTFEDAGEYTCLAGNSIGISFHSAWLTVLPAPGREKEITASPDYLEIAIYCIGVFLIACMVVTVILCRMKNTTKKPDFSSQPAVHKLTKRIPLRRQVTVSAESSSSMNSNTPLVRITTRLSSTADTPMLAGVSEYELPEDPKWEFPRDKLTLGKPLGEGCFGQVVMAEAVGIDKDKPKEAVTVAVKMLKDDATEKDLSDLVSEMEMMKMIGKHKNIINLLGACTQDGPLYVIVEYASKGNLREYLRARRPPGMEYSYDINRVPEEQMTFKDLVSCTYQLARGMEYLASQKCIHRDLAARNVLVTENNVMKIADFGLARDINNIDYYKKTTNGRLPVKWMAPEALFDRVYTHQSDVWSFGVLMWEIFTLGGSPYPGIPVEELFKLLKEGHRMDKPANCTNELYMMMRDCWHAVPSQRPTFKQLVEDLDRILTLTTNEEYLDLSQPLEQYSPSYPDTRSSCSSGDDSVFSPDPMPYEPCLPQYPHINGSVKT
Measured parameter: IC50 (nM)
Dear colleague, please return just the value in nM, with no unit written.

Input line: Requested field: IC50. Item: CCn1cc(-c2cnc3ccc(N(Cc4ncc[nH]4)c4cc(OC)cc(OC)c4F)nc3n2)cn1 [Compound 223]
Output line: 1.58

Input line: Query COc1cc(/N=c2\ccc3ncc(-c4cnn(C)c4)nc3n2CC2COC(=O)N2)c(F)c(OC)c1 (stereo not shown) [Compound 123] next
Output line: 1.26

Input line: Query COc1cc(OC)c(F)c(N(CC2CCC(=O)N2C)c2ccc3ncc(-c4cnn(C)c4)nc3n2)c1 (stereo not shown) [Compound 159] next
Output line: 6.61

Input line: Query COc1cc(OC)c(F)c(N(CC(N)=O)c2ccc3ncc(-c4cnn(C)c4)nc3n2)c1 [Compound 239] next
Output line: 7.94

---

Would you kindly list IC50 for each of these compounds?
biological target: FGFR1 (h) (Homo sapiens, UniProt P11362); assay: FGFR1 (enzymatic assay), TR-FRET; assay type: biochemical; conditions: average values if tested multiple times, read-out: FGFR 1 pIC50 (converted)
Sequence (P11362 22-822): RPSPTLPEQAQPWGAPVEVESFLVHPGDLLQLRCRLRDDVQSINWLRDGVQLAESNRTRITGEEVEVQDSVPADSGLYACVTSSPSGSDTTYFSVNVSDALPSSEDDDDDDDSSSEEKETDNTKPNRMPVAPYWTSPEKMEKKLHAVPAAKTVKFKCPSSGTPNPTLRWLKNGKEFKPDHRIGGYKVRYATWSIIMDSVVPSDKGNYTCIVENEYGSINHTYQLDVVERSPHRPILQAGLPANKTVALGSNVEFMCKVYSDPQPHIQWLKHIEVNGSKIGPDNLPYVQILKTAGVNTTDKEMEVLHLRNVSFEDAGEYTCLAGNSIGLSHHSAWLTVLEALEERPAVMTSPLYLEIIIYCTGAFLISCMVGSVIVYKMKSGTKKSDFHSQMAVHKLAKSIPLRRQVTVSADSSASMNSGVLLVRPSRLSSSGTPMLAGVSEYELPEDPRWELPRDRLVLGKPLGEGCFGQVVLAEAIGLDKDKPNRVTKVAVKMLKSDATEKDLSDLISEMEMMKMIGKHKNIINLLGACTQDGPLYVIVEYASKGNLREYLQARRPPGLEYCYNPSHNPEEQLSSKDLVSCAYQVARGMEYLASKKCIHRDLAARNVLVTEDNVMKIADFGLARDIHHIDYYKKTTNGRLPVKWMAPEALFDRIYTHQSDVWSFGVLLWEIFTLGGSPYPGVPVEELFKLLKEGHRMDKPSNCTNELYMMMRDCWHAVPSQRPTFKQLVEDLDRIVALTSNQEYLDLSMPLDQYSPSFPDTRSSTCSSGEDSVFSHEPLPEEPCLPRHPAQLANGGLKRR
Where a name gives a salt, the structure may show the parent alone.
Dear colleague, please return just the value in nM, with no unit written.

Input line: Requested field: IC50. Item: COc1cc(OC)cc(N(Cc2ncc[nH]2)c2ccc3ncc(-c4cnn(C)c4)nc3n2)c1 [24-sulphate salt]
Output line: 0.55

Input line: Query COc1cc(OC)c(F)c(/N=c2\ccc3ncc(-c4cnn(C)c4)nc3n2CCNC(C)C)c1F next
Output line: 1

Input line: Query COc1cc(OC)c(F)c(N(Cc2ncc[nH]2)c2ccc3ncc(-c4cnn(C)c4)nc3n2)c1F next
Output line: 7.94

Input line: Query COc1cc(OC)c(F)c(N(Cc2nc3ccccc3[nH]2)c2ccc3ncc(-c4cnn(C)c4)nc3n2)c1 next
Output line: 1.35

Input line: Query COc1cc(OC)cc(N(Cc2ncc[nH]2)c2ccc3ncc(-c4cnn(C)c4)nc3n2)c1 [24-hydrochloric acid salt] next
Output line: 0.776

Input line: Query COc1cc(OC)c(F)c(N(Cc2ncc[nH]2)c2ccc3ncc(-c4cnn(C)c4)nc3n2)c1 [23-fumarate salt] next
Output line: 0.479

---

molecular target: FGFR1 (h) (Homo sapiens); assay: FGFR1 (enzymatic assay), TR-FRET; format: biochemical; conditions: read-out: FGFR 1 pIC50 (converted)
Measured parameter: log10(IC50) (log10 of the value in nM)
Reminder: these figures are log10 of reported IC50, in nM before transformation.

Input line: Requested field: log10(IC50). Item: CCOCc1c[nH]c(CN(c2ccc3ncc(-c4cnn(C)c4)nc3n2)c2cc(OC)cc(OC)c2F)n1
Output line: 0.14

Input line: Query COc1cc(OC)cc(N(Cc2ncc[nH]2)c2ccc3ncc(-c4cccnc4)nc3n2)c1 next
Output line: 0.23

Input line: Query COc1cc(/N=c2\ccc3ncc(-c4cnn(C)c4)nc3n2CC2CCC(=O)N2C)c(F)c(OC)c1 (stereo not drawn) [Compound 160] next
Output line: 0.07

Input line: Query COc1cc(OC)cc(N(Cc2c[nH]nn2)c2ccc3ncc(-c4cnn(C)c4)nc3n2)c1 next
Output line: 0.12

Input line: Query COc1cc(OC)c(F)c(N(Cc2c[nH]c(C)n2)c2ccc3ncc(-c4cnn(C)c4)nc3n2)c1 next
Output line: 0.17

Input line: Query COc1cc(OC)cc(N(CC(O)COC(C)C)c2ccc3ncc(-c4cnn(CC(O)COC(C)C)c4)nc3n2)c1 (stereo not drawn) next
Output line: 0.62

Input line: Query COc1cc(OC)c(F)c(N(Cc2ncc[nH]2)c2ccc3ncc(-c4cnn(CCS(C)(=O)=O)c4)nc3n2)c1 next
Output line: -0.26

Input line: Query COc1cc(OC)cc(N(CCO)c2ccc3ncc(-c4ccncc4)nc3n2)c1 next
Output line: 0.63

Input line: Query COc1cc(/N=c2\ccc3ncc(-c4cnn(C)c4)nc3n2Cc2c(C)noc2C)c(F)c(OC)c1 next
Output line: 0.47

Input line: Query COc1cc(/N=c2\ccc3ncc(-c4cnn(C)c4)nc3n2CCN)c(F)c(OC)c1 next
Output line: 0.27

Input line: Query COc1cc(OC)c(F)c(N(CC2CCOC2)c2ccc3ncc(-c4cnn(C)c4)nc3n2)c1 (single isomer, unassigned) [Compound 170] next
Output line: 0.37

Input line: Query COc1cc(OC)c(F)c(N(Cc2ncco2)c2ccc3ncc(-c4cnn(C)c4)nc3n2)c1 next
Output line: 0.25

Input line: Query COc1cc(OC)c(F)c(N(CCCN2CCCC2=O)c2ccc3ncc(-c4cnn(C)c4)nc3n2)c1 next
Output line: 0.62

Input line: Query COc1cc(OC)c(F)c(N(CCS(C)(=O)=O)c2ccc3ncc(-c4cnn(CCS(C)(=O)=O)c4)nc3n2)c1 next
Output line: 0.16

Input line: Query COc1cc(/N=c2\ccc3ncc(-c4cnn(C)c4)nc3n2Cc2cc(C)on2)c(F)c(OC)c1 next
Output line: 0.18

Input line: Query COc1cc(OC)c(F)c(N(CC2CCC(=O)N2C)c2ccc3ncc(-c4cnn(C)c4)nc3n2)c1 (stereo not drawn) [Compound 161] next
Output line: 1.30

Input line: Query COc1cc(/N=c2\ccc3ncc(-c4cnn(C)c4)nc3n2CCN2CCOCC2)c(F)c(OC)c1 next
Output line: 0.23

Input line: Query COc1cc(OC)c(F)c(N(Cc2n[nH]c(=O)o2)c2ccc3ncc(-c4cnn(C)c4)nc3n2)c1 next
Output line: 0.20

Input line: Query COc1cc(OC)c(F)c(N(Cc2ncc[nH]2)c2ccc3ncc(N4C[C@@H](C)N[C@@H](C)C4)nc3n2)c1 next
Output line: 0.32

Input line: Query COc1cc(OC)c(F)c(N(CC2CCC(=O)N2CCO)c2ccc3ncc(-c4cnn(C)c4)nc3n2)c1 (stereo not drawn) [Compound 194] next
Output line: 1.05

Input line: Query COc1cc(OC)c(F)c(N(CC(=O)c2cnn(C)c2)c2ccc3ncc(-c4cnn(C)c4)nc3n2)c1 next
Output line: 0.82

Input line: Query COc1cc(OC)cc(N(Cc2nncn2CCO)c2ccc3ncc(-c4cnn(C)c4)nc3n2)c1 next
Output line: 1.05

Input line: Query COc1cc(OC)cc(N(Cc2n[nH]c(=O)o2)c2ccc3ncc(-c4cnn(C)c4)nc3n2)c1 next
Output line: 0.69

Input line: Query COc1cc(OC)c(F)c(N(CCNC(C)=O)c2ccc3ncc(-c4cnn(C)c4)nc3n2)c1 next
Output line: 0.07

Input line: Query COc1cc(OC)cc(N(Cc2ncn(CCO)n2)c2ccc3ncc(-c4cnn(C)c4)nc3n2)c1 next
Output line: 0.59

Input line: Query COc1cc(OC)c(F)c(N(CC(C)(C)O)c2ccc3ncc(-c4cnn(C)c4)nc3n2)c1 next
Output line: 0.56

Input line: Query COc1cc(OC)cc(N(CCNC2COC2)c2ccc3ncc(-c4cnn(C)c4)nc3n2)c1 next
Output line: 0.55

Input line: Query COc1cc(/N=c2\ccc3ncc(-c4cnn(C)c4)nc3n2CC2CC(O)C(=O)N2)c(F)c(OC)c1 (stereo not drawn) next
Output line: -0.11

Input line: Query COc1cc(/N=c2\ccc3ncc(-c4cnn(C)c4)nc3n2CC2CCC(=O)N2C)c(F)c(OC)c1 (stereo not drawn) [Compound 158] next
Output line: 0.24

Input line: Query COc1cc(OC)cc(N(CCN2CCCC2=O)c2ccc3ncc(-c4cnn(C)c4)nc3n2)c1 next
Output line: 1.59
